target: hACKR3 (atypical chemokine receptor 3; CXCR7) (Homo sapiens, UniProt P25106, D275N); test: homologous [3H]VUF15485 competition binding, HEK293T membranes
Sequence (P25106 whole entry D275N): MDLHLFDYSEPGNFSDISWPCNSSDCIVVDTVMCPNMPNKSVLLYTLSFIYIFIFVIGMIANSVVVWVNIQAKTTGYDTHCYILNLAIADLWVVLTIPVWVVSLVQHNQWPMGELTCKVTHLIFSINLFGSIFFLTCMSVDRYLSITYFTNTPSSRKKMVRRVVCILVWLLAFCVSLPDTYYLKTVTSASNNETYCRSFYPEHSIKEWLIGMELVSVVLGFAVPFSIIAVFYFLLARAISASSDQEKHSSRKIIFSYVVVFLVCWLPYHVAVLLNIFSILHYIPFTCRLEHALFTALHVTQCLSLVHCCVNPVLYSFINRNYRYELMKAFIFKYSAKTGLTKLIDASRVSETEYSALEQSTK
readout_type: pKi
Give bare numbers, as −log10 of the molar value.

Request: Which value of pKi has been reported for COc1cc(C(=O)N(CC[C@H]2CCCN2C)C/C(C)=C/c2ccccc2F)cc(OC)c1OC in the records?
Result: 7.73

====

molecular target: UniProtKB P25106; assay: […]CXCL12 displacement, intact HEK293T cells; assay type: cell-based
readout_type: pIC50
Numbers only, as −log10 of the molar value.

In [3]: df
Out[3]:
                                   compound  readout_type  endpoint_value
0  COc1cc(C(=O)N(CC[C@@H]2CCCN2C)C/C(C)=C/c2ccccc2F)cc(OC)c1OC [VUF13744]         pIC50            7.70

Please go through the list and note pIC50 for each compound.
1. COc1cc(C(=O)N(CCC2CCCN2C)C/C(C)=C/c2ccccc2F)cc(OC)c1OC (stereo not drawn) [VUF11207]
2. COc1cc(C(=O)N(CC[C@H]2CCCN2C)C/C(C)=C/c2ccccc2F)cc(OC)c1OC [VUF15485]

Result:
8.00
8.30

====

target: hACKR3 (atypical chemokine receptor 3; CXCR7) (Homo sapiens, UniProt P25106); assay: [3H]VUF15485 displacement, HEK293T membranes; assay type: binding
Sequence (P25106 whole entry): as the sequence (P25106 whole entry D275N) above, with N275D counted along it
Can you tell me IC50 for the items I'm about to list?

Below, 2 molecules whose answers are already recorded.
>>> df
                                        mol                               test_system  endpoint_value
0  c1cc(CN2CCCNCCNCCCNCC2)ccc1CN1CCCNCCNCCCNCC1  hACKR3 (atypical chemokine receptor 3; CXCR7) (Homo sapiens, UniProt P25106)        ≥ 100 µM
1         Oc1ccc(CN2CCC(CNCc3ccccc3)CC2)cc1  hACKR3 (atypical chemokine receptor 3; CXCR7) (Homo sapiens, UniProt P25106)           10 µM

Request: # input molecule: CC1(C)CN2C(CS/C(=N\C3CCCCC3)NC3CCCCC3)=CSC2=N1 ; wanted: its IC50
Result: ≥ 100 µM

====

biological target: hACKR3 (atypical chemokine receptor 3; CXCR7) (Homo sapiens, UniProt P25106, V217A); test: homologous [3H]VUF15485 competition binding, HEK293T membranes
Sequence (P25106 whole entry V217A): as the sequence (P25106 whole entry D275N) above, with V217A, N275D counted along it
readout_type: Ki (nM)
Numbers only, in nM.

Request: May I ask what Ki has been recorded for COc1cc(C(=O)N(CC[C@H]2CCCN2C)C/C(C)=C/c2ccccc2F)cc(OC)c1OC [VUF15485] ?
Result: 38

====

biological target: hACKR3 (atypical chemokine receptor 3; CXCR7) (Homo sapiens, UniProt P25106, H298A); experiment: homologous [3H]VUF15485 competition binding, HEK293T membranes
readout_type: Ki (nM)
Numbers only, in nM.

Request: Give Ki (hACKR3 (atypical chemokine receptor 3; CXCR7) (Homo sapiens, UniProt P25106, H298A)) of the following molecule: COc1cc(C(=O)N(CC[C@H]2CCCN2C)C/C(C)=C/c2ccccc2F)cc(OC)c1OC
Result: 44.7
